# Tested on: HOP-92 NSCLC
# experiment: NCI tumour cell line growth inhibition, 48 h
Where a SMILES comes first, the peptide text is derived from it. [ ]: non-standard residue; d: D form. The star is where a group is joined. ξ: configuration not given here. X6 = FC(F)(F)c1cc(NC(=S)*)cc(C(F)(F)F)c1; ξF = NC(Cc1ccccc1)C(=O)O
Recorded TGI for the following compounds

The following compounds have reported results that may help.
q: Jot down TGI (HOP-92 NSCLC) of COC1(OC)CCC2C1C1CCC(OC)(OC)C21 (centres undefined) .
a: > 50 µM

q: Jot down TGI (HOP-92 NSCLC) of `O=C1C(=O)N(c2ccc(Cl)cc2Cl)C(=O)C(=O)C1c1nc2ccccc2s1` .
a: > 100 µM

---
q: Jot down TGI (HOP-92 NSCLC) of `COc1ccc2c(c1)/C(=C/c1c(C)nc3sc(C)nn13)C(=O)N2` .
a: > 77.8 µM

q: Jot down TGI (HOP-92 NSCLC) of `CC(C)C/C(CC(=O)CCC(=O)Nc1ccccc1[N+](=O)[O-])=N\NC(=O)c1cc2ccccc2cc1O` .
a: > 100 µM

q: Jot down TGI (HOP-92 NSCLC) of O=C(/C=C/c1ccccc1)NC1C=Nc2ccc(Cl)cc2NC1=O (centres undefined) .
a: > 100 µM

q: Jot down TGI (HOP-92 NSCLC) of C[C@]12CC[C@H](O)CC1=CC[C@@H]1C2CC[C@]2(C)C(=O)N(N)C(=O)CC12 (some centres undefined) .
a: > 100 µM

q: Jot down TGI (HOP-92 NSCLC) of COc1ccc(/C=C2\CCC(C)C3=C2NC(=S)NC3c2ccc(OC)c(OC)c2)cc1OC (centres undefined) .
a: > 100 µM

q: Jot down TGI (HOP-92 NSCLC) of `N.N.N.N.O=[N+]([O-])[O-].[Co+3].[N-]=[N+]=[N-].[N-]=[N+]=[N-]` .
a: > 100 µM

q: Jot down TGI (HOP-92 NSCLC) of CCC(CO)Nc1nc2ccc(Cl)cc2c2ccccc12 (centres undefined) .
a: 14.8 µM

q: Jot down TGI (HOP-92 NSCLC) of Cc1coc2c1CC1(C)C(CCC(O)C1C)C2 (centres undefined) .
a: > 100 µM

q: Jot down TGI (HOP-92 NSCLC) of COC(=O)[C@@H](NC(=O)CNC(=O)[C@H]1CCCN1C(=O)C(Cc1ccccc1)NC(=S)Nc1cc(C(F)(F)F)cc(C(F)(F)F)c1)C(C)C (some centres undefined) (X6-[ξF][dP]GV-OMe) .
a: 6.37 µM

q: Jot down TGI (HOP-92 NSCLC) of `Cn1cnc([N+](=O)[O-])c1Sc1nnc(-c2cccnc2)n1C` .
a: 30.6 µM

q: Jot down TGI (HOP-92 NSCLC) of `Cc1nc2ccccc2c(N)c1-c1cc(C)c2c(C)nc3ccccc3c2n1` .
a: 3.38 µM

q: Jot down TGI (HOP-92 NSCLC) of `COC(CN1C(=O)c2cccc3cccc(c23)C1=O)OC` .
a: > 100 µM

q: Jot down TGI (HOP-92 NSCLC) of CCCCOC(=O)C1OC(O[C@H]2CCC3(C)C(CCC4(C)C3CC=C3C5CC(C)(C)CCC5(C(=O)O)CC[C@]34C)C2(C)C)C(OC2OC(CO)C(O)C(O)C2O)C(OC2OC(CO)C(O)C(O)C2O)C1O (some centres undefined) .
a: > 100 µM

q: Jot down TGI (HOP-92 NSCLC) of `COC1=CC(=O)c2nc(-c3ccncc3)[nH]c2C1=O` .
a: > 100 µM

q: Jot down TGI (HOP-92 NSCLC) of `CCC[C@@H](O)C[C@@H]1CCC[C@H](C[C@@H](O)CC)N1C` .
a: 5.06 µM

q: Jot down TGI (HOP-92 NSCLC) of `CCOC(=O)CN1C(=O)c2cccc3cc([N+](=O)[O-])cc(c23)C1=O` .
a: 6.21 µM

Provenance of the data: PubChem BioAssay (NCI)
